These measurements were taken from patent US20240174690A1.

Test: Caco-2 assay (permeability PappAB, PappBA, efflux ratio)
Type: in vitro ADME
Settings: human, Caco-2; apical to basolateral; 10 μM test compound, pH 7.4
readout: Papp A→B at 90 min, 10 μM (×10⁻⁶ cm/s)

The compound listed as C[C@H](Oc1cc(-n2ccc(C(=O)N(C)C3COC3)n2)nc(-c2noc3c2CCC[C@@]32CCCc3sc(N)c(C#N)c32)n1)[C@@H]1CCCN1C has a reported Papp A→B at 90 min, 10 μM of 11

a. C[C@H](Oc1cc(-c2ccn(C)n2)nc(-c2noc3c2CCC[C@@]32CCCc3sc(N)c(C#N)c32)n1)[C@@H]1C[C@@H](F)CN1C
b. C[C@H](Oc1cc(-c2ccn(C3COC3)n2)nc(-c2onc3c2CCC[C@@]32CCCc3sc(N)c(C#N)c32)n1)[C@@H]1CCCN1C
IN: When the recorded Papp A→B at 90 min, 10 μM values are compared, which is smaller: that of a or that of b ? Refer to your chosen item by its label in the answer.
OUT: b

a. C[C@H](Oc1cc(N2CCN(C)C3(COC3)C2)nc(-c2onc3c2CCC[C@@]32CCCc3sc(N)c(C#N)c32)n1)[C@@H]1C[C@@H](F)CN1C
b. C[C@H](Oc1cc(-c2ccn(C[C@@H](C)O)n2)nc(-c2noc3c2CCC[C@@]32CCCc3sc(N)c(C#N)c32)n1)[C@@H]1CCCN1C
c. C[C@H](Oc1cc(N2C[C@@H](N(C)C)[C@@H](O)C2)nc(-c2noc3c2CCC[C@@]32CCCc3sc(N)c(C#N)c32)n1)[C@@H]1CCCN1C
d. C[C@H](Oc1cc([C@H]2CCN(C)C2)nc(-c2noc3c2CCC[C@@]32CCCc3sc(N)c(C#N)c32)n1)[C@@H]1CCCN1C
IN: Put the items in sequence by Papp A→B at 90 min, 10 μM, from largest down. // respond by listing labels in the order requested
OUT: a, b, c, d
(a: 12 ×10⁻⁶ cm/s, b: 1.4 ×10⁻⁶ cm/s, c: 0.3 ×10⁻⁶ cm/s, d: 0.2 ×10⁻⁶ cm/s)

====

System: AsPC-1 cells
Experiment: AsPC-1 CTG proliferation assay (120 h) (pancreatic cancer, G12D)
Assay type: cell-based
Conditions: Homo sapiens, ASPC1
readout: IC50 (nM)

get_value(item= C[C@H](Oc1cc(N2CCN(C)C3(CC3)C2)nc(-c2noc3c2CCC[C@@]32CCCc3sc(N)c(C#N)c32)n1)[C@@H]1CCCN1C [II-171] , readout=IC50) returns 295

In plain terms, CO[C@H]1CCN(C)[C@@H]1[C@H](C)Oc1cc(-n2ccc(C(=O)N[C@@H]3CCOC3)n2)nc(-c2noc3c2CCC[C@@]32CCCc3sc(N)c(C#N)c32)n1 [II-197] has a documented IC50 of 226

Lab note: measured IC50 of CO[C@H]1CCN(C)[C@@H]1[C@H](C)Oc1cc(-n2ccc(C(=O)N(C)C3COC3)n2)nc(-c2noc3c2CCC[C@@]32CCCc3sc(N)c(C#N)c32)n1 [II-199] was 446

C[C@H](Oc1cc(-n2cc(C(=O)N(C)C)nn2)nc(-c2noc3c2CCC[C@@]32CCCc3sc(N)c(C#N)c32)n1)[C@@H]1CCCN1C [II-132] has a reported IC50 of 5110

Looking up C[C@H](Oc1cc(-c2cncs2)nc(-c2noc3c2CCC[C@@]32CCCc3sc(N)c(C#N)c32)n1)[C@@H]1CCCN1C [II-80] , I found its IC50 recorded as 5080

1. C[C@H](Oc1cc(N2CCN(C)C3(COC3)C2)nc(-c2noc3c2CCC[C@@]32CCCc3sc(N)c(C#N)c32)n1)[C@@H]1C[C@@H](F)CN1C [II-148]
2. C[C@H](Oc1cc(-n2ccsc2=O)nc(-c2noc3c2CCC[C@@]32CCCc3sc(N)c(C#N)c32)n1)[C@@H]1CCCN1C [II-135]
3. Cc1nccn1-c1cc(O[C@@H](C)[C@@H]2CCCN2C)nc(-c2noc3c2CCC[C@@]32CCCc3sc(N)c(C#N)c32)n1 [II-79]
IN: Given 3 compounds, produce a descending ranking by IC50. List each label, following the requested order.
OUT: 3, 2, 1

1. C[C@H](Oc1cc(-n2ccc(C(=O)N[C@H]3CCOC3)n2)nc(-c2onc3c2CCC[C@@]32CCCc3sc(N)c(C#N)c32)n1)[C@@H]1CCCN1C [I-57]
2. C[C@H]1CN(C)CCCN1c1cc(N2CCN(C)CC2)nc(-c2onc3c2CCC[C@@]32CCCc3sc(N)c(C#N)c32)n1 [I-7]
3. CC(=O)N1CC=C(c2cc(O[C@@H](C)[C@@H]3CCCN3C)nc(-c3noc4c3CCC[C@@]43CCCc4sc(N)c(C#N)c43)n2)CC1 [II-81]
4. C[C@H](Oc1cc(N2CCN(C)C3(CC3)C2)nc(-c2onc3c2CCC[C@@]32CCCc3sc(N)c(C#N)c32)n1)[C@@H]1C[C@@H](F)CN1C [I-39]
IN: Ascending by IC50, please. Answer by listing the labels in the requested order.
OUT: 4, 1, 2, 3
(4: 149 nM, 1: 278 nM, 2: 2370 nM, 3: 4860 nM)

====

Tested on: KRAS G12V-dependent Ba/F3 cells
Assay: Ba/F3 proliferation assay, KRAS G12V;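 further: proliferation IC50 in KRAS G12V-dependent Ba/F3 cells read by AlamarBlue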
Type: cell-based
Settings: Mus musculus, BaF3, 72 h, AlamarBlue
Procedure: Plasmids containing KRASG12 mutants (i.e. […], G12C, G12V) are obtained from GeneScript. To generate KRASG12-dependent Ba/F3 models, Ba/F3 cells are transduced with retroviruses containing vectors that harbor KRASG12 isoforms. […] Compounds are added using an Access Labcyte Workstation with a Labcyte Echo 550 or 555 accoustic dispenser. […] AlamarBlue™ (ThermoFisher), a viability stain, is added and fluorescence measured in the PerkinElmer Envision HTS Multilabel Reader. […]
pIC50: −log10 of the molar value.
readout: pIC50

The following compounds have reported results that may help.
KRAS G12V-dependent Ba/F3 cells assay, compound C[C@H](Oc1cc([C@H]2CCNC2)nc(-c2noc3c2CCC[C@@]32CCCc3sc(N)c(C#N)c32)n1)[C@@H]1CCCN1C , recorded pIC50 = 6.49

Sample C[C@H](Oc1cc(N2CCN(C)C2=O)nc(-c2noc3c2CCC[C@@]32CCCc3sc(N)c(C#N)c32)n1)[C@@H]1CCCN1C , system: KRAS G12V-dependent Ba/F3 cells. Its pIC50 is 7.85

The recorded pIC50 with KRAS G12V-dependent Ba/F3 cells for C[C@H](Oc1cc(N2CC[C@@H](N(C)C)C2)nc(-c2noc3c2CCC[C@@]32CCCc3sc(N)c(C#N)c32)n1)[C@@H]1CCCN1C was 6.79

pIC50 of C[C@H](O)Cn1ccc(-c2cc(O[C@@H](C)[C@@H]3CCCN3C)nc(-c3onc4c3CCC[C@@]43CCCc4sc(N)c(C#N)c43)n2)n1 , assay on KRAS G12V-dependent Ba/F3 cells, is 8.05

I. C[C@H](Oc1cc(N2C[C@H](C)NC3(CC3)C2)nc(-c2noc3c2CCC[C@@]32CCCc3sc(N)c(C#N)c32)n1)[C@@H]1C[C@@H](F)CN1C
II. C[C@H](Oc1cc(-n2ccc(C3(O)COC3)n2)nc(-c2noc3c2CCC[C@@]32CCCc3sc(N)c(C#N)c32)n1)[C@@H]1CCCN1C
III. CO[C@H]1CCN(C)[C@@H]1[C@H](C)Oc1cc(-n2ccc(C(=O)N[C@H]3CCOC3)n2)nc(-c2onc3c2CCC[C@@]32CCCc3sc(N)c(C#N)c32)n1
IV. C[C@H](Oc1cc(N2Cc3cnn(C)c3C2)nc(-c2noc3c2CCC[C@@]32CCCc3sc(N)c(C#N)c32)n1)[C@@H]1CCCN1C
IN: Which order do these items take when sorted by rising pIC50? List them. Please respond with the labels ordered as the question requires.
OUT: I, IV, II, III

P. C[C@H](Oc1cc([C@@H]2CCN(C)C2)nc(-c2noc3c2CCC[C@@]32CCCc3sc(N)c(C#N)c32)n1)[C@@H]1CCCN1C
Q. Cc1nc(-c2cc(O[C@@H](C)[C@@H]3CCCN3C)nc(-c3onc4c3CCC[C@@]43CCCc4sc(N)c(C#N)c43)n2)cs1
IN: Lab note: check whether P or Q shows the higher recorded pIC50. Could you answer with the label of the item you picked?
OUT: Q

a. C[C@H](Oc1cc(-n2ccc(C(=O)NC3(C)COC3)n2)nc(-c2noc3c2CCC[C@@]32CCCc3sc(N)c(C#N)c32)n1)[C@@H]1CCCN1C
b. C[C@H](Oc1cc(-c2ccn3ncnc3c2)nc(-c2onc3c2CCC[C@@]32CCCc3sc(N)c(C#N)c32)n1)[C@@H]1CCCN1C
c. CO[C@H]1CCN(C)[C@@H]1[C@H](C)Oc1cc(-n2ccc(C(N)=O)n2)nc(-c2noc3c2CCC[C@@]32CCCc3sc(N)c(C#N)c32)n1
d. [2H]C([2H])([2H])N1C[C@H](F)C[C@H]1[C@H](C)Oc1cc(N2CCN(C([2H])([2H])[2H])C3(CC3)C2)nc(-c2noc3c2CCC[C@@]32CCCc3sc(N)c(C#N)c32)n1
IN: Given 4 compounds, produce a descending ranking by pIC50. To answer, write out the labels according to the requested order.
OUT: c, a, b, d

1. CNC(=O)c1cn(-c2cc(O[C@@H](C)[C@@H]3CCCN3C)nc(-c3noc4c3CCC[C@@]43CCCc4sc(N)c(C#N)c43)n2)nn1
2. COCCNC(=O)c1ccn(-c2cc(O[C@@H](C)[C@@H]3CCCN3C)nc(-c3onc4c3CCC[C@@]43CCCc4sc(N)c(C#N)c43)n2)n1
IN: Lower pIC50: 1 or 2 ? Kindly state the label of the option you pick.
OUT: 1
